The measured values listed here are drawn from patent US20240383910A1.

biological target: BTK (Homo sapiens, UniProt Q06187); assay: TR-FRET saturation binding assay of the BTK tracer
Sequence (Q06187 whole entry, species assumed): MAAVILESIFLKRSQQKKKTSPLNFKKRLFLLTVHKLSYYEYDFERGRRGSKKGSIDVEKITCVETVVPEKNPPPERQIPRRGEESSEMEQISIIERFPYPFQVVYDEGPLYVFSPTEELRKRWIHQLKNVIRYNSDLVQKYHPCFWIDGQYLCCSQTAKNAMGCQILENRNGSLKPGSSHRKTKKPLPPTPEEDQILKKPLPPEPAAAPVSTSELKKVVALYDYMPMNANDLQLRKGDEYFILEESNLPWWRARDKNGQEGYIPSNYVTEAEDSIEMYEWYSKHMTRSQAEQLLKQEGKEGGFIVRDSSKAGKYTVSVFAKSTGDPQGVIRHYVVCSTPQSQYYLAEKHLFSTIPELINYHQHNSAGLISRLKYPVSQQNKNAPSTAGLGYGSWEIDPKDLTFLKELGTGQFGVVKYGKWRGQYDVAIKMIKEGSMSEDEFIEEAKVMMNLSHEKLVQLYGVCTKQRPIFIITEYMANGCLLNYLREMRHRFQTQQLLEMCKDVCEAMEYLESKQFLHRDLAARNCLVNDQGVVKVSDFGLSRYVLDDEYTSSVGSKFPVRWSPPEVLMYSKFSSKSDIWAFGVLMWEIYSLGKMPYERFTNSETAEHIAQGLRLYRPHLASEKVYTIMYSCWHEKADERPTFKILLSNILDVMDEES
pKd: −log10 of the molar value.

CHEMICAL_STRING | pKd
CC1=CC(C)=[N+]2C1=Cc1ccc(CCC(=O)NCCCN(C)CCCC(=O)N3CCC[C@@H](n4nc(-c5ccc(Oc6ccccc6)cc5)c5c(N)ncnc54)C3)n1[B-]2(F)F | 6.81

====

biological target: His-BTK (Homo sapiens, UniProt Q06187); construct: purchased SignalChem B10-10H-10; assay: TR-FRET competition binding assay with BTK-BODIPY tracer; details: TR-FRET, 2 nM His-BTK, 150 nM BTK-BODIPY tracer, 2 h incubation
Sequence (Q06187 whole entry): as the sequence (Q06187 whole entry, species assumed) above
pIC50: −log10 of the molar value.
MEASUREMENT_LABEL: pIC50

COMPOUND | TARGET_OR_TEST_SYSTEM | MEASUREMENT_LABEL | ASSAY_VALUE
C=CC(=O)Nc1cccc(Oc2nc(Nc3ccc(N4CCN(C)CC4)cc3)nc3ccoc23)c1 [Poseltinib] | His-BTK (Homo sapiens, UniProt Q06187) | pIC50 | 8.92
